pest or weed control at 70 g/ha: recorded values
Test system: Key Broadleaf Weed and Crop Species
assayDetails: Post-Emergent Test II (Table 5)
Assay type: in vivo
measurementSetup: Helianthus annuus, post-emergence, 336 h, HELAN: sunflower (Helianthus annuus), application rate 70 (kg ai/ha; footnote: g ai/ha), read-out: Visual Growth Reduction (%) 14 Days After Application HELAN
Procedure: Seeds or nutlets of the desired test plant species were planted in Sun Gro Metro-Mix® 360 planting mixture, which typically has a pH of 6.0 to 6.8 and an organic matter content of about 30 percent, in plastic pots with a surface area of 64 square centimeters. […] A weighed amount, determined by the highest rate to be tested, of each test compound was placed in a 25 mL glass vial and was dissolved in 4 mL of a 97:3 v/v mixture of acetone and DMSO to obtain concentrated stock solutions. […]

smilesEntry: Nc1cc(-c2ccc(Cl)c(F)c2CO)nc(C(=O)O)c1Cl
testSystem: Key Broadleaf Weed and Crop Species
pest or weed control at 70 g/ha: 0 to 29%
--
smilesEntry: COC(=O)c1nc(-c2ccc(Cl)c(F)c2OC)cc(N)c1Cl
testSystem: Key Broadleaf Weed and Crop Species
pest or weed control at 70 g/ha: 85 to 94%
--
smilesEntry: COC(=O)c1nc(-c2ccc(C(F)(F)F)nc2OC)cc(N)c1Cl
testSystem: Key Broadleaf Weed and Crop Species
pest or weed control at 70 g/ha: 0 to 29%
--
smilesEntry: COc1c(-c2cc(N)c(Cl)c(C(=O)O)n2)ccc(Cl)c1F
testSystem: Key Broadleaf Weed and Crop Species
pest or weed control at 70 g/ha: 85 to 94%
--
smilesEntry: Cc1c(F)c(Cl)cc(F)c1-c1cc(N)c(Cl)c(C(=O)O)n1
testSystem: Key Broadleaf Weed and Crop Species
pest or weed control at 70 g/ha: 95 to 100%
--
smilesEntry: Cc1c(-c2cc(N)c(Cl)c(C(=O)O)n2)ccc(C(F)(F)F)c1F
testSystem: Key Broadleaf Weed and Crop Species
pest or weed control at 70 g/ha: 85 to 94%
--
smilesEntry: Nc1cc(-c2ccc(Cl)c(F)c2CF)nc(C(=O)O)c1Cl
testSystem: Key Broadleaf Weed and Crop Species
pest or weed control at 70 g/ha: 85 to 94%
--
smilesEntry: COC(=O)c1nc(-c2ccc(C3CC3)nc2)c(F)c(N)c1Cl
testSystem: Key Broadleaf Weed and Crop Species
pest or weed control at 70 g/ha: 95 to 100%
--
smilesEntry: COC(=O)c1nc(-c2ccc(Cl)c(Cl)c2C)cc(N)c1Cl
testSystem: Key Broadleaf Weed and Crop Species
pest or weed control at 70 g/ha: 45 to 59%
--
smilesEntry: COC(=O)c1nc(-c2ccc(Cl)c(F)c2Cl)nc(N)c1OC
testSystem: Key Broadleaf Weed and Crop Species
pest or weed control at 70 g/ha: 85 to 94%
--
smilesEntry: C=Cc1c(-c2cc(N)c(Cl)c(C(=O)O)n2)ccc(Cl)c1F
testSystem: Key Broadleaf Weed and Crop Species
pest or weed control at 70 g/ha: 95 to 100%
--
smilesEntry: COC(=O)c1nc(-c2ccc(C(F)(F)F)nc2F)c(F)c(N)c1Cl
testSystem: Key Broadleaf Weed and Crop Species
pest or weed control at 70 g/ha: 95 to 100%
--
smilesEntry: COC(=O)c1nc(-c2ccc(Cl)nc2F)cc(N)c1Cl
testSystem: Key Broadleaf Weed and Crop Species
pest or weed control at 70 g/ha: 60 to 74%
--
smilesEntry: COC(=O)c1nc(-c2ccc(C(F)(F)F)nc2OC)c(F)c(N)c1Cl
testSystem: Key Broadleaf Weed and Crop Species
pest or weed control at 70 g/ha: 85 to 94%
--
smilesEntry: Cc1c(-c2ccc(C(F)(F)F)nc2)nc(C(=O)O)c(Cl)c1N
testSystem: Key Broadleaf Weed and Crop Species
pest or weed control at 70 g/ha: 85 to 94%
--
smilesEntry: COC(=O)c1nc(-c2ccc(I)c(F)c2C)cc(N)c1Cl
testSystem: Key Broadleaf Weed and Crop Species
pest or weed control at 70 g/ha: 60 to 74%
--
smilesEntry: COc1c(N)nc(-c2ccc(Cl)c(F)c2C)nc1C(=O)O
testSystem: Key Broadleaf Weed and Crop Species
pest or weed control at 70 g/ha: 45 to 59%
--
smilesEntry: COC(=O)c1nc(-c2ccc(Cl)c(F)c2C)nc(N)c1OC
testSystem: Key Broadleaf Weed and Crop Species
pest or weed control at 70 g/ha: 75 to 84%
--
smilesEntry: COc1nc(Cl)ccc1-c1cc(N)c(Cl)c(C(=O)O)n1
testSystem: Key Broadleaf Weed and Crop Species
pest or weed control at 70 g/ha: 85 to 94%
--
smilesEntry: COC(=O)c1nc(-c2ccc(OC(F)F)nc2)c(F)c(N)c1Cl
testSystem: Key Broadleaf Weed and Crop Species
pest or weed control at 70 g/ha: 85 to 94%
--
smilesEntry: Cc1c(-c2cc(N)c(Cl)c(C(=O)O)n2)ccc(Cl)c1Cl
testSystem: Key Broadleaf Weed and Crop Species
pest or weed control at 70 g/ha: 85 to 94%
--
smilesEntry: Nc1c(F)c(-c2ccc(OC(F)F)nc2)nc(C(=O)O)c1Cl
testSystem: Key Broadleaf Weed and Crop Species
pest or weed control at 70 g/ha: 85 to 94%
--
smilesEntry: COC(=O)c1nc(-c2ccc(C(F)(F)F)nc2)c(Cl)c(N)c1Cl
testSystem: Key Broadleaf Weed and Crop Species
pest or weed control at 70 g/ha: 85 to 94%
--
smilesEntry: COC(=O)c1nc(-c2ccc(Cl)c(F)c2CF)cc(N)c1Cl
testSystem: Key Broadleaf Weed and Crop Species
pest or weed control at 70 g/ha: 85 to 94%
--
smilesEntry: Nc1c(F)c(-c2ccc(Cl)c(F)c2Cl)nc(C(=O)O)c1Cl
testSystem: Key Broadleaf Weed and Crop Species
pest or weed control at 70 g/ha: 95 to 100%
--
smilesEntry: COC(=O)c1nc(-c2ccc(Cl)nc2F)nc(N)c1Cl
testSystem: Key Broadleaf Weed and Crop Species
pest or weed control at 70 g/ha: 30 to 44%
